Value source: patent US11220510B2

Readings of Ki for the listed compounds
Target: Adenosine A2A receptor (Tag-lite Adenosine A2A labeled cells) (Homo sapiens (Human))
Assay: A2A Tag-lite HTRF assay (fluorescent ligand displacement)
Details: Red antagonist fluorescent ligand 12.5 nM, one-site competitive binding model, read-out: A2A_Ki

CCCCCn1c2c(-c3ccccc3)c[nH]c2c(=O)n2c(C)nnc12 [Example 15] ... 100 to 1000 nM
CCCCCn1c2c(-c3cnn(Cc4ccccc4)c3)c[nH]c2c(=O)n2c(C)nnc12 [Example 17] ... 100 to 1000 nM

Next up:
Per the records, this compound ( CCCCCn1c2cc(-c3cnn(Cc4cnc5cccnc5c4)c3)[nH]c2c(=O)n2c(C(F)(F)F)nnc12 [Example 12] ) has Ki equal to < 10 nM

====

Biological target: Adenosine A2A receptor (Tag-lite Adenosine A2A labeled cells) (Homo sapiens (Human), UniProt P29274)
Sequence (P29274 whole entry): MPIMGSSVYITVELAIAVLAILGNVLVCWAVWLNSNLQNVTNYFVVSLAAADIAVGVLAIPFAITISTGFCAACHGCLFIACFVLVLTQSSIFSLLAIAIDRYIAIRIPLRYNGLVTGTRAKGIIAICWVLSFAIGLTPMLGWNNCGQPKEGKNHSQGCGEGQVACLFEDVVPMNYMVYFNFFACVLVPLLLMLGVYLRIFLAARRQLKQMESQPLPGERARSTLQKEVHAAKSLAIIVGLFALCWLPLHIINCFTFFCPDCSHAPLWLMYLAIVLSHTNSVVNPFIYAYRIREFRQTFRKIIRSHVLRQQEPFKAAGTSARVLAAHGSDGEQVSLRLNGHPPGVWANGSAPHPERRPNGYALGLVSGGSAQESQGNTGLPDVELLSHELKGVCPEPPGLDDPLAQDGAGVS
Test: A2A Tag-lite HTRF assay (fluorescent ligand displacement)
Settings: Red antagonist fluorescent ligand 12.5 nM, one-site competitive binding model, read-out: A2A_Ki
pKi: −log10 of the molar value.
Readings of pKi for the listed compounds

CCCCn1c2cc(-c3cnn(C4CN(c5nccc(OC)n5)C4)c3)[nH]c2c(=O)n2c(C)nnc12 ... > 8.00
CCCCn1c2cc(-c3cnn(C4CN(c5nccc(C#N)n5)C4)c3)[nH]c2c(=O)n2c(C)nnc12 ... > 8.00

Per the records, this compound ( CCCCn1c2cc(-c3cnn(C4CN(c5nccc(N)n5)C4)c3)[nH]c2c(=O)n2c(C)nnc12 ) has pKi equal to > 8.00

Per the records, this compound ( CCCCCn1c2cc(-c3cnn(C4CN(c5nccc(N)n5)C4)c3)[nH]c2c(=O)n2c(C)nnc12 ) has pKi equal to > 8.00

Per the records, this compound ( CCCCCn1c2cc(-c3cnn(Cc4cccnc4)c3)[nH]c2c(=O)n2c(C)nnc12 ) has pKi equal to > 8.00

Per the records, this compound ( CCCCCn1c2cc[nH]c2c(=O)n2c(C)cnc12 ) has pKi equal to 7.00 to 8.00

Per the records, this compound ( CCCCn1c2cc(-c3cnn(C4CN(c5ncc(F)c(N)n5)C4)c3)[nH]c2c(=O)n2c(C)nnc12 ) has pKi equal to > 8.00

Per the records, this compound ( CCCCCn1c2c(Br)c[nH]c2c(=O)n2c(C)nnc12 ) has pKi equal to 7.00 to 8.00

====

Molecular target: human adenosine A2B receptor (Homo sapiens (Human), UniProt P29275)
Sequence (P29275 whole entry): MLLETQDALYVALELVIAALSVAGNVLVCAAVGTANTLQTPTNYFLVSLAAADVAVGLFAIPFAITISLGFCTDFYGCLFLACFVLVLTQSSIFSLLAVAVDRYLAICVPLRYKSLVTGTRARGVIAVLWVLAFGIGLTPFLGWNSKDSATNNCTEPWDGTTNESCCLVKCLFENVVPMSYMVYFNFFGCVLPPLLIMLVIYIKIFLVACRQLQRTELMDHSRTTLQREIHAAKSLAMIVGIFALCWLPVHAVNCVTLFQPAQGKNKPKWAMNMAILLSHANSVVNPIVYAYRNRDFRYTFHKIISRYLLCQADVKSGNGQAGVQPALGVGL
Assay: Adenosine A2B Receptor Cyclic AMP GS Assay
Details: HEK-293 cells expressing human A2B; agonist NECA 12 nM; cAMP accumulation by FRET; read-out: A2B_cAMP_EC50
pEC50: −log10 of the molar value.
observation-type: pEC50

Observe how each entry below is paired with its result.
CCCCCn1c2cc(-c3cnn(Cc4ccc5c(c4)CCN(C(=O)CN(C)C)C5)c3)[nH]c2c(=O)n2c(C)nnc12 ... > 8.00
CCCCCn1c2cc(-c3cnn(Cc4ccn5ccnc5c4)c3)[nH]c2c(=O)n2c(C)nnc12 ... 7.00 to 8.00
CCCCCn1c2cc(-c3cnn(Cc4cncc(Cl)c4)c3)[nH]c2c(=O)n2c(C)nnc12 ... 7.00 to 8.00

Next up:
Per the records, this compound ( CCCCCn1c2cc(-c3cnn(C4CN(c5ncccn5)C4)c3)[nH]c2c(=O)n2c(C)nnc12 ) has pEC50 equal to 7.00 to 8.00
